molecular target: B-Raf^V600E (Homo sapiens, UniProt P15056, V600E); assay: In vitro B-Raf kinase assay
Sequence (P15056 433-726 V600E): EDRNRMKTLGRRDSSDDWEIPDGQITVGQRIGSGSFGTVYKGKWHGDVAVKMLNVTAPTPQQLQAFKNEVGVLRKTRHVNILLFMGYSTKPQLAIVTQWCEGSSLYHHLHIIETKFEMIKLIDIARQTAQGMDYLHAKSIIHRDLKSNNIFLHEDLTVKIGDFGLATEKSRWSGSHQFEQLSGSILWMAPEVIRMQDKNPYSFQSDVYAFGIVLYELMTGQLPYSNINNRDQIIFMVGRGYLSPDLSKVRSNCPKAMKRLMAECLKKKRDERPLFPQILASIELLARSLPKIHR
REPORTED_PROPERTY: IC50 (µM)
One number for each entry, in µM.

1) COc1ccc(-c2ccc(C=C3C(=O)NC(=S)NC3=O)o2)cc1 [Compound 22h] :: 2.69

Please examine the following record next.
In: Lab request: please report IC50 under test system B-Raf^V600E (Homo sapiens, UniProt P15056, V600E) for O=C1NC(=S)NC(=O)C1=Cc1ccc(-c2ccc3ccccc3c2)o1 [Compound 22j]
Out: 1.07

====

molecular target: B-Raf^V600E (Homo sapiens, UniProt P15056, V600E); experiment: In vitro B-Raf kinase assay; format: biochemical; conditions: 2μM of compound
REPORTED_PROPERTY: Inhibition rate (%) B-Raf^V600E (% n.d.)
Answers are plain numbers, in % n.d..

Hi team, please reply with Inhibition rate (%) B-Raf^V600E for each item in this list.
1. O=C1Nc2cc(Cl)ccc2C1=Cc1ccc(-c2cc(C(F)(F)F)ccc2Cl)o1 [Compound 17f]
2. O=C1Nc2ccc(Cl)cc2C1=Cc1ccc(-c2cccc(C(F)(F)F)c2)o1 [Compound 17c]
3. O=C1Nc2ccc(Cl)cc2C1=Cc1ccc(-c2cc(C(F)(F)F)ccc2Cl)o1 [Compound 17e]
4. O=C1C(=Cc2ccc(-c3cc(C(F)(F)F)ccc3Cl)o2)Cc2ccccc21 [Compound 16g]
5. O=C1Nc2cc(Cl)ccc2C1=Cc1ccc(-c2cccc(C(F)(F)F)c2)o1 [Compound 17b]
6. O=C1Nc2ccccc2C1=Cc1ccc(-c2cccc(C(F)(F)F)c2)o1 [Compound 17a]
7. O=C1Nc2ccccc2C1=Cc1ccc(-c2cc(C(F)(F)F)ccc2Cl)o1 [Compound 17d]

Out:
34
23
34
44
38
34
23

Hi team, please reply with Inhibition rate (%) B-Raf^V600E for each item in this list.
1. O=C1NC(=O)C(=Cc2ccc(-c3cc(C(F)(F)F)ccc3Cl)o2)S1 [Compound 19k]
2. O=C1C(=Cc2ccc(-c3cccc(C(F)(F)F)c3)o2)Cc2ccccc21 [Compound 16b]

Out:
[37, 22]
